Provenance of the data: PubChem BioAssay

- protocol_description: inhibitors of TNFa-induced NFkB p65 translocation, primary screen, imaging, HUVEC, MLSMR starter and 10KST1 sets (AID 438);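 further: compound added about 3h40 before a 20 min TNFalpha stimulation; signal is the nuclear over cytoplasmic p65 intensity ratio per well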
- details: HUVEC TNFa-induced p65 nuclear translocation; at 2 µM, stronger effect = higher value, 0% TNFa-plus-vehicle, 100% no-TNFa wells
measurement_type: inhibition (%)
Just the number in %, nothing appended.

The examples below pair each entry with its known result.
>>> df
                                   compound  measurement_type  measured_result
0  CN(Cc1ccccc1)Cc1nc2c([nH]1)c(=O)[nH]c(=O)n2C        inhibition             12.9
1  CCOC(=O)c1ccc(NC(=O)NC(C)C2CCCO2)cc1 (stereo unspecified)        inhibition            -12.3
2  COc1ccccc1NC(=O)CC(NCc1ccccc1)C(=O)O (stereo unspecified)        inhibition             -8.3
3  O=C1CCCc2c1cc(C(=O)NCc1ccco1)c(=O)n2-c1ccc(Cl)cc1        inhibition              0.8
4  O=C(NC1(C(F)(F)F)NC(=O)N(Cc2ccco2)C1=O)c1cccnc1 (stereo unspecified)        inhibition              1.8

According to the records, this compound Cc1ccc(-c2nnc(-c3ccc(Br)cc3)o2)o1 displays inhibition of 0.5

// inhibition lookup, compound = O=C(Nc1cccc2c1CCCC2)C1CCN(c2nnnn2-c2ccccc2)CC1 , result: 1.7

Noted for CCCn1c(NCc2cc(C)ccc2O)nc2ccccc21 : its inhibition reads 1.4

Documented inhibition of CCCCOC(=O)Cn1c(=N)n(CCN2CCOCC2)c2ccccc21 : 4

Entry CCOC(=O)c1sc2ncn(/N=C/N(C)C)c(=O)c2c1C , inhibition reported as -2.7

What the record says about CCN1C(=O)N(CC)C2C1N(C(C)=O)C(=O)N2C(C)=O (stereo unspecified) : inhibition is 3.7

---

- protocol_description: endothelial E-selectin expression blockers – imaging, HUVEC, immunofluorescence, MLSMR starter and 10KST1 sets, primary screen (AID 487);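 further: 100% = median nuclei count of all wells on the same plate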
- details: HUVEC TNFalpha-induced E-selectin immunofluorescence imaging, at 2 µM; measured here: cell number, toxicity
measurement_type: nuclei count (%)
# number only, unit % dropped from output

Sample records with nuclei count:
>>> df
                                   molecule  measurement_type  scale_unit  measured_result
0  CC(=O)Nc1nc(C)c(-c2csc(Nc3ccc(O)cc3)n2)s1      nuclei count           %              164
1               c1ccc2c(c1)Cn1c-2nc2ccccc21      nuclei count           %              114
2  O=S(=O)(c1ccccc1)N1CCSC1c1ccco1 (stereo unspecified)      nuclei count           %              102
3  CCN(CC)CC(=O)Nc1ccc(-c2nc3cc(NC(=O)CN(CC)CC)ccc3o2)cc1      nuclei count           %              100
4       COc1ccc(CNc2nc3nc(C)cc(C)n3n2)cc1OC      nuclei count           %              115
5  CN(CCC#N)C(=O)COC(=O)c1ccc(Cl)c(S(N)(=O)=O)c1      nuclei count           %              102
6  O=C(NCCN1CCOCC1)c1ccc2c(c1)N(Cc1ccccc1)C(=O)CS2      nuclei count           %              105
7                   Cc1ccccc1-c1noc(N)c1C#N      nuclei count           %              103

nuclei count reading for CCC(=O)N(Cc1cc2c(C)ccc(C)c2[nH]c1=O)C1CCCCC1 : 100

Given item COCCNC(=O)Cn1nc(C(F)(F)F)c(Br)c1C , the value recorded as its nuclei count is 92

Briefly, nuclei count measured for COc1ccc(CNC(=O)c2cc(-c3ccc(OC)c(OC)c3)on2)cc1 : 110
